System: L. amazonensis axenic amastigotes
ASSAY: alamarBlue viability / concentration-response assay, axenic amastigotes
Type: cell-based, Leishmania amazonensis
REPORTED CONDITIONS: Pathogen Box screen, 1 μM, 72 h
Method: Leishmania amazonensis axenic amastigotes (100 μL, 2×10^6 cells/mL) were added to 96-multiwell plates containing 100 μL of amastigote culture medium with an appropriate compound dilution series. 0.1% DMSO (no drug) served as a positive control (100%), and 5 μM amphotericin B served as a negative growth control (0%). […] Similarly, the cytotoxicity of each compound was determined against RAW 264.7 cells and HepG2 cell lines, following 72 h incubation at 37° C. […]
PROPERTY MEASURED: relative fluorescence intensity signal vs vehicle (hit definition)

COMPOUND	TARGET SYSTEM	TEST VALUE
CC(=O)Oc1ccccc1C(=O)Nc1ncc([N+](=O)[O-])s1 [nitazoxanide]	L. amazonensis axenic amastigotes	hits
CC(C)(C)[C@H]1CC[C@H](CC2=C(O)C(=O)c3ccccc3C2=O)CC1	L. amazonensis axenic amastigotes	hits
CC(=O)OC[C@H]1O[C@@H]([S-])[C@H](OC(C)=O)[C@@H](OC(C)=O)[C@@H]1OC(C)=O.CCP(CC)CC.[Au+]	L. amazonensis axenic amastigotes	hits
C[C@]1(COc2ccc(N3CCC(Oc4ccc(OC(F)(F)F)cc4)CC3)cc2)Cn2cc([N+](=O)[O-])nc2O1	L. amazonensis axenic amastigotes	hits

---

TARGET SYSTEM: purified L. tarentolae tubulin (Leishmania tarentolae, UniProt A0A640KCM0+A0A640KQN0)
ASSAY: Chemical cross-linking competition with SW223022 probe
Assay type: binding
REPORTED CONDITIONS: 100-fold excess of competitor
PROPERTY MEASURED: competition with SW223022 probe (fluorescent tubulin band)

MOLECULE	TARGET SYSTEM	TEST VALUE
CCc1c(C)nc(-n2nc(C)cc2NC(=O)c2ccc(F)c(Cl)c2)[nH]c1=O [SW223041]	purified L. tarentolae tubulin (Leishmania tarentolae, UniProt A0A640KCM0+A0A640KQN0)	almost completely absent
CCc1c(C)nc(-n2nc(C)cc2NC(=O)c2ccccc2SC)[nH]c1=O [MMV676477]	purified L. tarentolae tubulin (Leishmania tarentolae, UniProt A0A640KCM0+A0A640KQN0)	almost completely absent
CSc1ccccc1C(=O)Oc1cc(C)nc(-n2nc(C)cc2N)n1 [SW10]	purified L. tarentolae tubulin (Leishmania tarentolae, UniProt A0A640KCM0+A0A640KQN0)	No apparent competition
CCc1c(C)nc(-n2nc(C)cc2NC(C)=O)[nH]c1=O [SW223023]	purified L. tarentolae tubulin (Leishmania tarentolae, UniProt A0A640KCM0+A0A640KQN0)	No apparent competition

Data provenance is patent US20240139190A1.
